- test.summary: Half life in mouse plasma at 25 ug/ml incubated for 24 hrs by RP-HPLC analysis
- Type: ADME, cell-free
assay.metric: half-life at 25 ug/ml (h)
One number for each entry, in h.

Q) Tell us which half-life at 25 ug/ml value is on record for NC(=O)c1c(F)ccc(OCc2nn(-c3ccc(Br)cc3)c(=O)o2)c1F
A) 2.5

* * *

- study.target: Cell division protein FtsZ (Bacillus subtilis (strain 168))
- test.summary: Induction of Bacillus subtilis FtsZ polymerization in presence of GTP at 5 ug/ml measured over 30 mins by microtiter plate-based light-scattering assay
Calls of active or inactive are those of the source. The rule behind the calls is not given here.
assay.metric: Activity

Field: example entries. Status: answers known.
[
  {
    "given.smiles": "NC(=O)c1c(F)ccc(OCn2nc(-c3ccc(Cl)cc3)oc2=O)c1F",
    "Activity": "inactive"
  },
  {
    "given.smiles": "NC(=O)c1c(F)ccc(OCC2=NN(c3ccc(Br)cc3)C(=O)C2)c1F",
    "Activity": "inactive"
  },
  {
    "given.smiles": "CC(=O)NC[C@H]1CN(c2ccc(N3CCOCC3)c(F)c2)C(=O)O1",
    "Activity": "inactive"
  },
  {
    "given.smiles": "CCn1c(COc2ccc(F)c(C(N)=O)c2F)nn(-c2ccc(Br)cc2)c1=O",
    "Activity": "inactive"
  }
]

Turning to the following compound.
Q) Report Activity under test system Cell division protein FtsZ (Bacillus subtilis (strain 168)) for NC(=O)c1c(F)ccc(OCc2nn(-c3ccc(Br)cc3)c(=O)[nH]2)c1F .
A) inactive
